Answer each item with its documented MFI.
biological target: Claudin 18.1 (CLDN18.1), expressed on CHOS-CLDN18.1 cells (UniProt P56856); assay: FACS, CHOS-CLDN18.1 cells, 10 µg/ml
Sequence (P56856 whole entry): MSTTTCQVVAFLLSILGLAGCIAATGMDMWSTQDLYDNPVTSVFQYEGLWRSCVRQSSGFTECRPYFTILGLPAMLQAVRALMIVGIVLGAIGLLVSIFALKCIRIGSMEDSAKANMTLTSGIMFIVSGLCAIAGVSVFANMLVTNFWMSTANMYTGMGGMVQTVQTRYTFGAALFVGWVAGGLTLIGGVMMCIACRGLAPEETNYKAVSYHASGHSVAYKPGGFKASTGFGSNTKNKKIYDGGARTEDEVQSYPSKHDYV
Please give the numeric answer without any surrounding text.

stdin: Give MFI for QP207208 (antibody, human IgG1, V domains shown) VH: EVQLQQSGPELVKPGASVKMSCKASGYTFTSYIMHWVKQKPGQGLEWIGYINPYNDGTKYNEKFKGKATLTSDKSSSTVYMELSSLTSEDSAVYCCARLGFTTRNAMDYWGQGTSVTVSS VL: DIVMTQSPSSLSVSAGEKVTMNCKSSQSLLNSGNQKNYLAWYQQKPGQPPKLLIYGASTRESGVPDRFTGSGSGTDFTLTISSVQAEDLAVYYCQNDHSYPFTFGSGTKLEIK
stdout: 1320

stdin: Look up and report measured MFI for this entry: QP190191 (antibody, human IgG1, V domains shown) VH: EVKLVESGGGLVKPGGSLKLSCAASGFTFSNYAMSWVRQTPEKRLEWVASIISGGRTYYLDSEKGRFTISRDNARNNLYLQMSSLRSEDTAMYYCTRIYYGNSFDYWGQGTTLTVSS VL: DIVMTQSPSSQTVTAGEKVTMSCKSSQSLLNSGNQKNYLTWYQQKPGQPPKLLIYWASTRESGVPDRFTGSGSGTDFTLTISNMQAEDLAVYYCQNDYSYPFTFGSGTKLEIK
stdout: 1060

stdin: Identify measured MFI associated with QP199200 (antibody, human IgG1, V domains shown) VH: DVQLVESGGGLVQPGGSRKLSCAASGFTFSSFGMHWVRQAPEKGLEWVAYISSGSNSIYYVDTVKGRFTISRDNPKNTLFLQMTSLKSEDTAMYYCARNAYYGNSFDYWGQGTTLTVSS VL: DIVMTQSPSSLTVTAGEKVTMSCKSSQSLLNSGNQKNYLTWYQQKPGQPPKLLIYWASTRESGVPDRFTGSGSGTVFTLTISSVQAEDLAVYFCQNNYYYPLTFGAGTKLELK
stdout: 918
